Target: human 5HT1A-serotonergic receptor (Homo sapiens, UniProt P08908)
Construct: cell membranes used
Sequence (P08908 whole entry): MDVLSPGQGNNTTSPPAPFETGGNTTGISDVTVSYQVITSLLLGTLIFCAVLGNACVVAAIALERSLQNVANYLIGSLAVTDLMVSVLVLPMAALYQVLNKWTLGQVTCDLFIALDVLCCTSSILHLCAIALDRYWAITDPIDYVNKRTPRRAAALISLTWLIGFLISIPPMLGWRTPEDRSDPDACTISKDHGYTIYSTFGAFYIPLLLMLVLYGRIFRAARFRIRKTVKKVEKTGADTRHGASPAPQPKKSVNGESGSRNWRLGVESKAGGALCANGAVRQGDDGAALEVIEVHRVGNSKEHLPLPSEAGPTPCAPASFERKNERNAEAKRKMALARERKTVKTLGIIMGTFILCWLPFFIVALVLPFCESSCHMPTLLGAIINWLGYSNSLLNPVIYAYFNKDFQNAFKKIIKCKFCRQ
Assay: Radioligand binding to recombinant 5-HT1A receptors
Settings: [3H]8-OH-DPAT 1 nM, membranes of HeLa cells with human 5-HT1A receptor; Ki from IC50 by Cheng & Prusoff; read-out: Binding affinity for 5HT1A receptors, Ki
Quantity Measured: log10 of Ki (log10 of the value in nM)

Compound: O=S(=O)(c1ccc(F)cc1)N1c2ccccc2CCC1CN1CCN(c2cccc3[nH]ccc23)CC1 (centres unmarked)
log10 of Ki: 1.32

Compound: O=C(C1CCCCC1)N1c2ccccc2CCC1CN1CCN(c2ncccc2C(F)(F)F)CC1 (centres unmarked)
log10 of Ki: 0.51

Compound: O=C(C1CCCCC1)N1c2ccccc2CCC1CN1CCN(c2c(Cl)cncc2Cl)CC1 (centres unmarked)
log10 of Ki: 1.01

Compound: O=C(C1CCCCC1)N1c2ccccc2CCC1CN1CCC(c2cccc(F)c2)CC1 (centres unmarked)
log10 of Ki: 1.59

Compound: COCCC(=O)N1c2ccccc2CCC1CN1CCN(c2ccccc2OCC(F)(F)F)CC1 (centres unmarked)
log10 of Ki: 1.49

Compound: CC(C)(C)NC(=O)N1c2ccccc2CCC1CN1CCN(c2cccc3[nH]ccc23)CC1 (centres unmarked)
log10 of Ki: 0.32

Compound: O=C(CCOCc1ccccc1)N1c2ccccc2CCC1CN1CCN(c2ccccc2OCC(F)(F)F)CC1 (centres unmarked)
log10 of Ki: 1.01

Compound: O=C(c1cccc(Cl)c1)N1c2ccccc2CCC1CN1CCN(c2cccc3[nH]ccc23)CC1 (centres unmarked)
log10 of Ki: 1.15

Compound: CC(C)(C)OC(=O)n1cc(CC(=O)N2c3ccccc3CCC2CN2CCN(c3cccc4[nH]ccc34)CC2)c2ccccc21 (centres unmarked)
log10 of Ki: 1.96

Compound: O=C(C1CCCCC1)N1c2ccccc2CCC1CN1CCN(c2cccc3cc[nH]c23)CC1 (centres unmarked)
log10 of Ki: 0.49

Compound: O=C(C1CCCCC1)N1c2ccccc2CCC1CN1CCN(c2ccccc2OCC(F)(F)F)CC1 (centres unmarked)
log10 of Ki: -0.15

Compound: O=C(Cc1ccccc1F)N1c2ccccc2CCC1CN1CCN(c2cccc3[nH]ccc23)CC1 (centres unmarked)
log10 of Ki: 0.94

Compound: O=C(C1CCCCC1)N1c2ccccc2CCC1CN1CCN(c2cccc3[nH]ccc23)CC1 (racemic) [Example 1]
log10 of Ki: 0.52

Compound: CCNC(=O)N1c2ccccc2CCC1CN1CCN(c2cccc3[nH]ccc23)CC1 (centres unmarked)
log10 of Ki: 1.59

Compound: O=C(C1CCCCC1)N1c2ccc(F)cc2CCC1CN1CCN(c2cccc3[nH]ccc23)CC1 (centres unmarked)
log10 of Ki: 0.45

Compound: O=C(c1ccc[nH]1)N1c2ccccc2CCC1CN1CCN(c2cccc3c2OCCO3)CC1 (centres unmarked)
log10 of Ki: 0.71

Compound: O=C(C1CCCCC1)N1c2ccccc2CCC1CN1CCN(c2ccc(F)cc2[N+](=O)[O-])CC1 (centres unmarked)
log10 of Ki: 0.66

Compound: COc1cc(F)ccc1N1CCN(CC2CCc3c(Cl)cccc3N2C(=O)C2CCCCC2)CC1 (centres unmarked)
log10 of Ki: 0.38

Compound: O=C(NCc1ccccc1)N1c2ccccc2CCC1CN1CCN(c2cccc3[nH]ccc23)CC1 (centres unmarked)
log10 of Ki: 1.41

Compound: Cn1ccc2c(N3CCN(CC4CCc5ccccc5N4C(=O)C4CCCCC4)CC3)cccc21 (centres unmarked)
log10 of Ki: 0.95

Compound: Cc1[nH]c2cccc(N3CCN(CC4CCc5ccccc5N4C(=O)C4CCCCC4)CC3)c2c1C (centres unmarked)
log10 of Ki: 0.60

Compound: O=C(Cc1cccs1)N1c2ccccc2CCC1CN1CCN(c2nccc3ccccc23)CC1 (centres unmarked)
log10 of Ki: 1.23

Compound: N#Cc1ccc(C(=O)N2c3ccccc3CCC2CN2CCN(c3cccc4c3OCCO4)CC2)cc1 (centres unmarked)
log10 of Ki: 1.09

Compound: O=C(C1CCCCC1)N1c2ccccc2CCC1CN1CCN(c2cccc(O)c2)CC1 (centres unmarked)
log10 of Ki: 1.59

Compound: N#CNCCC(=O)N1c2ccccc2CCC1CN1CCN(c2cccc3[nH]ccc23)CC1 (centres unmarked)
log10 of Ki: 1.71

Compound: CC(=O)N1CCC(C(=O)N2c3ccccc3CCC2CN2CCN(c3nccc4ccccc34)CC2)CC1 (centres unmarked)
log10 of Ki: 0.73

Compound: O=C(Cc1ccsc1)N1c2ccccc2CCC1CN1CCN(c2cccc3c2OCCO3)CC1 (centres unmarked)
log10 of Ki: 0.93

Compound: O=C(N1CCCC1)N1c2ccccc2CCC1CN1CCN(c2cccc3[nH]ccc23)CC1 (centres unmarked)
log10 of Ki: 1.68

Compound: Cc1oc(S(=O)(=O)N2CCCC2)cc1C(=O)N1c2ccccc2CCC1CN1CCN(c2cccc3[nH]ccc23)CC1 (centres unmarked)
log10 of Ki: 1.67

Compound: O=C(c1ccc(N2CCOCC2)nc1)N1c2ccccc2CCC1CN1CCN(c2cccc3[nH]ccc23)CC1 (centres unmarked)
log10 of Ki: 1.26

Compound: CN(C)c1ccc(C(=O)N2c3ccccc3CCC2CN2CCN(c3cccc4[nH]ccc34)CC2)cc1 (centres unmarked)
log10 of Ki: 1.38

Compound: CCn1ccc2c(N3CCN(CC4CCc5ccccc5N4C(=O)C4CCCCC4)CC3)cccc21 (centres unmarked) [Example 62A]
log10 of Ki: 1.64
